The reported numbers originate from patent US20260069689A1.

Target: T1, SARS-CoV2 Spike ecto foldon Trimer expressed with a C-terminal myc-myc-hexahistidine (SARS-CoV-2, UniProt P0DTC2 14-1213)
T1 construct: extracellular domain
Test: SPR Biacore, mAb captured by anti-hFc, 25C
Examples of binders with documented log10 kon follow.
Response schema: value (number) is log10 of kon in units of M⁻¹ s⁻¹.

BINDER: mAb14235 (antibody, V domains shown) VH: QITLKESGPTLVKPTQTLTLTCTFSGFSLNTGGVGVGWIRQPPGNALEWLALIYWDDDKRYNPSLKTRLTISKDTSKNQVVLTMTNMDPVDTATYFCAHLTIAVIVDFWGQGTLVTVSS VL: QSALTQPASVSGSPGQSITISCTATSSDVGTYNYVSWFQHHPGKAPKLMIYEVTNRPSGVSNRFSGSKSGNTASLTISGLQAEDEADYYCSSYTTTSIVFGGGTKLTVLG
RESULT_NUMBER: 5.89
//
BINDER: mAb13459 (antibody, V domains shown) VH: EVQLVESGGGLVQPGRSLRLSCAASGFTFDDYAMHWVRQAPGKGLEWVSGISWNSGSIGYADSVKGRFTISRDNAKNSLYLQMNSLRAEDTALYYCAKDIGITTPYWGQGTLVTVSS VL: AIQMTQSPSSLSASVGDRVTITCRASQDIRNDLGWYQQKPGKAPKLLIYSASSLQTGVPSRFSGSGSGTDFTLTISSLHPEDFATYYCLQDYNYVWTFGQGTKVEIKR
RESULT_NUMBER: 6.15
//
BINDER: mAb14256 (antibody, V domains shown) VH: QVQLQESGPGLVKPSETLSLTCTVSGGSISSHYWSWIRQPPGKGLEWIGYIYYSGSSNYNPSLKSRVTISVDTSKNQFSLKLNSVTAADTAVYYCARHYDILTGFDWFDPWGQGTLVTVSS VL: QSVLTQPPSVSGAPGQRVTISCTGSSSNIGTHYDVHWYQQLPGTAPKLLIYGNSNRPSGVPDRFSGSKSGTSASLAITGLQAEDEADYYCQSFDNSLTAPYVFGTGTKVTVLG
RESULT_NUMBER: 6.17
//
BINDER: mAb14286 (antibody, V domains shown) VH: QVQLVQSGAEVKKPGASVKVSCKASGYTFTDYFIHWVRQAPGQGLEWMGWINPTSGGTNYAQKFRGRVTMTRDTSISTAYVELSRLRSDDTALYYCARDLPFYSDTKQFDYWGQGTLVTVSS VL: QSALTQPASVSGYPGQSITISCTGTSSDVGGYNYVSWYQQHPGKAPKLMIFDVSNRPSGVSNRFSGSKSGNTASLTFSGLQAEDEADYYCSSYTSSSTLVFGGGTKLTVLG
RESULT_NUMBER: 6.42
//
BINDER: mAb14234 (antibody, V domains shown) VH: QVQLVESGGGVVQPGRSLRLSCAASGFTFSSYGIHWVRQAPGKGLEWVAIIWYDGSEKYYADSVKGRFTISRDNSKNTLFLQMNSLEAEDTAVYYCARGPDLLTGYYNYFYYGMDVWGQGTTVTVSS VL: QSVLTQPPSVSGAPGQRVTISCTGSSSNIGIGYDVHWYQQLPGTVPKLLIYGNTNRPSGVPDRFSGSKSGTSASLAITGLQAEDEADYYCQSYDSSLSSYVFGTGTKVTVLG
RESULT_NUMBER: 5.85

Recorded log10 kon of mAb14255 (antibody, V domains shown) VH: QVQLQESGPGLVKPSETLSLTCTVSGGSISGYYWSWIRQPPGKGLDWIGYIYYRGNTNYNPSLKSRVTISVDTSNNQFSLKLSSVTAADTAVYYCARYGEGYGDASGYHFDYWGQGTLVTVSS VL: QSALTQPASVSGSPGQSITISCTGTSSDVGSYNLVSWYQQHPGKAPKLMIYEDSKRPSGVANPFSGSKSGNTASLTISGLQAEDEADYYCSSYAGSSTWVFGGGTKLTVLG , please. 6.29

Let us now turn to mAb15170 (antibody, V domains shown) VH: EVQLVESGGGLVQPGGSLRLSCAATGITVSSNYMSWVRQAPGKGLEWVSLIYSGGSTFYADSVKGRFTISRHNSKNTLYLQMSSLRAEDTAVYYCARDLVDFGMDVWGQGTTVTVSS VL: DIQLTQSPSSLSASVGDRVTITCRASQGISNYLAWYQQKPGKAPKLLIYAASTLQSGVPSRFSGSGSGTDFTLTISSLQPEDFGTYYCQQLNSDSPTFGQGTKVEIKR 5.08

Same again, this time with mAb15166 (antibody, V domains shown) VH: EVQLVESGGGLVQPGGSLRLSCAASGFTVTSNYMSWVRQAPGKGLEWVSAIYSGESTYYADSVKGRFTISRDSSKNTLYLQMNSLRVEDTAVYYCASIHDYSNYVGGFDPWGQGTLVTVSS VL: QSALTQPASVSGSPGQSITISCTGPSSDFGSYNLVSWYQQHPGKAPKLMIYEGTKRPSGVSNRFSGSKSGNTASLTISGLQAEDEADYYCSSYAGSSTWVFGGGTKLTVLG 5.44

Also mAb14284 (antibody, V domains shown) VH: QITLKESGPTLVKPTQTLTLTCTFSGFSFSTSGVGVGWIRQPPGKTLEWLALIYWDDDKRYSPSLKSRLTITKDTSKNQVVLTMTNMDPVDTATYFCAHHGIPTIFGYWGQGALVTVSS VL: QSALTQPASVSGSPGQSITISCTGTSSDLGVFNYVSWYQQHPGKAPKLMIYEVTNRPSGVSNRFSGSKSGNTASLTISGLQAEDEADYYCSSYTTSSTVFGGGTKLTVLG ? 5.91

Can you handle mAb14282 (antibody, V domains shown) VH: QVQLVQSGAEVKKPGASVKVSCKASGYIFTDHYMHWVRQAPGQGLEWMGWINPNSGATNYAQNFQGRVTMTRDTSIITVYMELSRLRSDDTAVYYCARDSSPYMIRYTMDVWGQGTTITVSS VL: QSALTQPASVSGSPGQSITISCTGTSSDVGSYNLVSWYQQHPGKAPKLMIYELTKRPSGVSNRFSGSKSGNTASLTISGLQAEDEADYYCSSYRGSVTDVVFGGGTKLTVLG next? 6.33
